The reported measurements were obtained from patent US20210253725A1.

Molecular target: T1, CD27 protein (His-tagged, Sino Biological Inc. 10039-H08B1) (human, UniProt P26842 20-192)
T1 construct: bought; coated onto ELISA plates; also called human CD27; recombinant protein; not shown: His tag
T1 sequence (looked up): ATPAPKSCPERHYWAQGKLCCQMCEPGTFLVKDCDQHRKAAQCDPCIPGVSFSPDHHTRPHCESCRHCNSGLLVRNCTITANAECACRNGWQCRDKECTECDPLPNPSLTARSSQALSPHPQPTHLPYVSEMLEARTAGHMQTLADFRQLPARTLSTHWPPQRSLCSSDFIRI
Assay: ELISA on coated His-tagged CD27; further: test concentration or dose not given here
readout name: ELISA [abs. corr.] (abs. corr.)
Express your answer in abs. corr., writing the number without its unit.

Sample P018.S.01.A.E05 (antibody, V domains shown, V regions on human Ig constant parts; also called AB27_17) VH: QEQLVESGGGLVQPEGSLTLTCTASGFSFSSRYYMCWVRQAPGKGLEWIACIAPDVSGSAYYATWAKGRITISETSSTTVTLRMTSLTAADTAIYFCARSVPGSLFYFQLWGPGTVVTVSS VL: AAVLTQTPPSVSAAVGGTVTIKCQSSQSVYNKNEFSWYQQKPGQPPKLLIYDASTLASGVPSRFKGSGSGTQFTLTISDLESDDAATYYCQGSYYSSGSYTAFGGGTEVVVK — what was its ELISA [abs. corr.]?
3.22

I am curious: what ELISA [abs. corr.] value has been reported for P018.S.01.A.F05 (antibody, V domains shown, V regions on human Ig constant parts; also called AB27_20) VH: QEQLEESGGDLVKPEGSLTLTCTASGFSFSSSYWICWVRQAPGKGLEWIGCIITGRGNTYYANWAKGRFTISKTSSTTVTLQMTSLTAADTAIYSCARGPGGADPVNLWGPGTLVTVSS VL: DVVMTQTPASVSEPVGGTVTIKCQASQSIYSNLAWYQQKPGQPPKLLIYRASTLTSGVPSRFKGSGSGTQFTLTISDLESADAATYYCQCTYDGSSYVPNAFGGGTEVVVK ?
3.35

Requested read-out: ELISA [abs. corr.]. Entry: P018.S.01.A.E06 (antibody, V domains shown, V regions on human Ig constant parts; also called AB27_18) VH: QSLEESGGDLVKPGASLTLTCTASGIDFSSSYYMCWVRQAPGKGLEWIGCIATGGGNTYYATWAKGRFTFSETSSTTVTLQMTSLTVADTATYFCARTYPSMWYFNLWGPGTLVTVSS VL: DVVMTQTPASVSEPVGGTVTIKCQASQSIGFNLAWYQQKPGQPPNLLIYGVSTLTSGVSSRFKGSGSGTQFTLTISDLESADAATYYCQSFYAGSSAFGGGTEVVVK
3.45
